Where these numbers come from: PubChem BioAssay AID1259407

System: CCRIS mutagenicity, Ames/micronucleus/aberration tests
Experiment: CCRIS mutagenicity studies
Test Context: Test System: AMES SALMONELLA TYPHIMURIUM; Strain/Indicator: TA1535; Metabolic Activation: NONE; Method: STANDARD PLATE
Calls of active or inactive are those of the source. No rule for the calls is given here.
Hi there, use one of these labels in your reply, thanks! active, inactive

Compound: C[C@]12CC[C@@H]3c4ccc(O)cc4CC[C@H]3[C@@H]1CC[C@@H]2O
Assigned Label: inactive
//
Compound: Nc1nc2cc(Cl)c(Cl)cc2s1
Assigned Label: inactive
//
Compound: CN(Cc1cccc(C#N)c1)N=O
Assigned Label: active
//
Compound: CC1COCc2cc3c(cc21)C(C)(C)C(C)C3(C)C (stereo not drawn)
Assigned Label: inactive
//
Compound: CCc1cccc2c3c([nH]c12)C(C)(CC)OCC3 (stereo not drawn)
Assigned Label: inactive

Q. How was CC(C)=CCC1=C(O)c2ccccc2C(=O)C1=O classified in this test?
A. inactive

Q. Test call for this compound, please: CCCCS(=O)(=O)n1ncc(Cl)c(Cl)c1=O
A. inactive

----------
Tested on: CCRIS mutagenicity, Ames/micronucleus/aberration tests
Experiment: CCRIS mutagenicity studies
Test Context: Test System: AMES SALMONELLA TYPHIMURIUM; Strain/Indicator: TA100; Metabolic Activation: HAMSTER, LIVER, S-9, AROCLOR 1254 (30%); Method: PREINCUBATION
The source made the active and inactive calls. The rule behind the calls is not given here.
Result category, one only: active, inactive

Compound: CCCCCCC=O
Assigned Label: inactive

Compound: O=[N+]([O-])c1ccccc1CCO
Assigned Label: active

Q. GET /call?item= CCNc1nc(Cl)nc(NC(C)C)n1 returns the recorded outcome of this test.
A. inactive

Q. Hey, what did the test say about CCCCCCCCCCCCOCC1CO1 (stereo unspecified) ?
A. inactive

----------
System: CCRIS mutagenicity, Ames/micronucleus/aberration tests
Experiment: CCRIS mutagenicity studies
Test Context: End Point: IN VITRO MICRONUCLEUS; Test System: CHL/IU CELLS; Metabolic Activation: RAT, LIVER, S-9, PHENOBARBITAL AND 5,6-BENZOFLAVONE
Active and inactive are the calls of the source. How the calls were made is not given here.

Smiles Notation: CN(C)N=O
mutagenic call: active; positive
//
Smiles Notation: Cn1c(N)nc2ncc(-c3ccccc3)cc21
mutagenic call: active; positive
//
Smiles Notation: Nc1ccc(N)cc1
mutagenic call: active; positive

----------
Test system: CCRIS mutagenicity, Ames/micronucleus/aberration tests
Experiment: CCRIS mutagenicity studies
Test Context: Test System: AMES SALMONELLA TYPHIMURIUM; Strain/Indicator: TA98; Metabolic Activation: RAT, LIVER, S-9, AROCLOR; Method: STANDARD PLATE
Activity calls are given as the source filed them. How the calls were made is not given here.
Hi there, use one of these labels in your reply, thanks! TRUE = active, FALSE = inactive

Examples from the recorded data:
Smiles Notation: CNc1ccc2ccc3ccc(O)cc3c2c1
Assigned Label: TRUE
//
Smiles Notation: CN=C([S-])N/N=C/C(C)=N/NC([S-])=NC.[Cu+2]
Assigned Label: FALSE
//
Smiles Notation: Nc1n[nH]c(N)n1
Assigned Label: FALSE
//
Smiles Notation: Cc1nc2c(cc(C)c3ccc4ccc(O)cc4c32)[nH]1
Assigned Label: TRUE

Below: the item to evaluate.
Q. Check the results log: what was the call for CN(C)c1ccc(N=Nc2ccccc2)cc1 ?
A. TRUE
